Just for reference, PubChem BioAssay is where these values come from.

biological target: Voltage-gated potassium channel subunit beta-2 (Rattus norvegicus); assay: enhancers of rat Kvbeta2 NADPH turnover – biochemical, NADPH fluorescence, primary screen (AID 623); details: Recombinant KvBeta, NADPH fluorescence decrease slope, 10 min; at 10 µM; stronger effect = lower value;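 further: fluorescence intensity change per second fitted from 20 to 320 s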
property.label: NADPH fluorescence slope
Please state the value as a number alone, without comment.

{"compound": "COc1ccc(C2c3c(-c4ccccc4O)n[nH]c3C(=O)N2CCc2ccc(OC)c(OC)c2)cc1 (stereo unspecified)", "property.label": "NADPH fluorescence slope", "numeric.value": "5.9e-06"}
{"compound": "CCN1CCN(C(=O)c2cn(CC)c3ccc(S(=O)(=O)N(C)C)cc3c2=O)CC1", "property.label": "NADPH fluorescence slope", "numeric.value": "-3.2e-05"}
{"compound": "CCOCCCNC(=O)c1c[nH]c2ccc(S(=O)(=O)Nc3cccc(OC)c3)cc2c1=O", "property.label": "NADPH fluorescence slope", "numeric.value": "-3.6e-05"}
{"compound": "CC(OC(=O)c1ccco1)C(=O)NCc1cccs1 (stereo unspecified)", "property.label": "NADPH fluorescence slope", "numeric.value": "-6e-05"}
{"compound": "CC1CCCC(N2CCN(C(=O)c3ccc(F)cc3)CC2)C1 (stereo unspecified)", "property.label": "NADPH fluorescence slope", "numeric.value": "-4.9e-05"}

Now consider a different compound.
Problem: Respond only with NADPH fluorescence slope recorded for COC(=O)c1cc2ccsc2n1CC(=O)Nc1cc(C)cc(C)c1
Solution: 9.4e-06

---

target: Voltage-gated potassium channel subunit beta-2 (Rattus norvegicus) (UniProt P62483); experiment: enhancers of rat Kvbeta2 NADPH turnover – biochemical, NADPH fluorescence, primary screen (AID 623); conditions: Recombinant KvBeta, NADPH fluorescence decrease slope, 10 min; at 10 µM; stronger effect = lower value;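 further: fluorescence intensity change per second fitted from 20 to 320 s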
Sequence (P62483 whole entry, looked up): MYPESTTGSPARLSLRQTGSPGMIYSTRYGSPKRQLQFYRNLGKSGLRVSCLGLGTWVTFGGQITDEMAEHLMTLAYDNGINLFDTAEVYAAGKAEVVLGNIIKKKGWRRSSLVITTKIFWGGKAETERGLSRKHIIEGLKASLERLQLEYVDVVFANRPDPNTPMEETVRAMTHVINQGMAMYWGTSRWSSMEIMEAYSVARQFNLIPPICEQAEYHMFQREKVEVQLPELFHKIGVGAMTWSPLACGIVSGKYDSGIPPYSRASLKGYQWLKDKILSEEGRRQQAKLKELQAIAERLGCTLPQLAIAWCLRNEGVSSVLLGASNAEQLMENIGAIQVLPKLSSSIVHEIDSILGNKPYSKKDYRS
Listed here are compounds together with their documented NADPH fluorescence slope.
# print the numeric value only

Consider the following illustrative entries.
{"compound": "O=c1cc(-c2ccccc2)[nH]c2nc3ccccc3n12", "property.label": "NADPH fluorescence slope", "numeric.value": "2.4e-05"}
{"compound": "N#CC1=C(N)N2C(=C(C#N)C13CCCCC3)SC1CCCCC12O (stereo unspecified)", "property.label": "NADPH fluorescence slope", "numeric.value": "1.2e-05"}
{"compound": "Cn1c(=O)c2c(-c3ccncc3)c3c(nc2n(C)c1=O)-c1ccccc1C3=O", "property.label": "NADPH fluorescence slope", "numeric.value": "4.5e-05"}
{"compound": "N#Cc1c(N)oc(-c2cccs2)c1-c1cccs1", "property.label": "NADPH fluorescence slope", "numeric.value": "-3e-05"}
{"compound": "O=C(NCc1ccco1)c1cc2sccc2n1Cc1ccccc1", "property.label": "NADPH fluorescence slope", "numeric.value": "5.4e-05"}

With those in mind, consider the next compound.
Problem: Report NADPH fluorescence slope for CN(C)c1ccc(C2C3=C(CCCC3=O)OC3=C2C(=O)CCC3)cc1
Solution: -5.2e-05

---

Form field: nuclei count (one value per entry).
experiment: endothelial E-selectin expression blockers – imaging, HUVEC, immunofluorescence, MLSMR starter and 10KST1 sets, primary screen (AID 487); details: HUVEC TNFalpha-induced E-selectin immunofluorescence imaging, at 2 µM; measured here: cell number, toxicity;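 further: 100% = median nuclei count of all wells on the same plate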
Please reply with the bare figure in % and do not write the unit itself.

Some compounds with known nuclei count results, for comparison:
{"compound": "O=C(NCc1ccco1)c1cc2sccc2n1Cc1ccccc1", "nuclei count, %": 110}
{"compound": "CCOCCCNC(=O)C1CCC(=O)N1CCc1ccccc1 (configuration not stated)", "nuclei count, %": 95.1}

Problem: Check the records and state nuclei count for CC(C)N(C=O)C1(C(=O)NC2CCCCC2)CCCCC1
Solution: 113

Problem: Please report the measured nuclei count for O=C(NC1CCCCC1NC(=O)c1ccco1)c1ccco1 (configuration not stated)
Solution: 112

Problem: Read the entry CCn1c(SCC(=O)Nc2ccccc2F)nc2c(c1=O)SC(C)C2 (configuration not stated) and write its reported nuclei count.
Solution: 117

Problem: Answer with the recorded nuclei count for the compound listed here: C/C(N)=C(/C#N)C(=O)COC(=O)COc1ccc(Cl)cc1
Solution: 105

Problem: Note down nuclei count recorded for COC(=O)c1ccc(Oc2nc(NC(C)C)nc(N(C)C)n2)cc1
Solution: 106

Problem: Complete the entry with nuclei count for Oc1ccc2[nH]cnc2c1CN1CCCCC1
Solution: 95.1

Problem: Give the measured nuclei count for Clc1ccc(Cl)c(-c2nn3c(COc4ccccc4)nnc3s2)c1
Solution: 139

Problem: Dear colleague, please send me the reported nuclei count for CCc1ccccc1NC(=O)C(CC)Sc1nc2cc3c(cc2c(=O)n1Cc1ccco1)OCO3 (configuration not stated) when you can.
Solution: 105

Problem: Supply recorded nuclei count for O=C(c1ncc[nH]1)c1ccccc1C(=O)N1CCOCC1 here.
Solution: 116

Problem: Look up and state reported nuclei count for CC(C)[C@H](NC(=O)NCc1ccc(Cl)cc1)C(=O)O
Solution: 87.2

---

target: Voltage-gated potassium channel subunit beta-2 (Rattus norvegicus) (UniProt P62483); assay: inhibitors of rat Kvbeta2 reductase activity – biochemical, NADPH fluorescence, primary screen (AID 622); conditions: recombinant KvBeta, 4-cyanobenzaldehyde reduction, at 10 µM, stronger effect = higher value;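 further: slope of raw intensity against log time taken from 70 to 1610 s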
# reported fluorescence slope; entries follow
# print the numeric value only

Observe how each entry below is paired with its result.
{"molecule": "C=CCSc1nnc(-c2cccnc2)o1", "property.label": "fluorescence slope", "numeric.value": -0.539}
{"molecule": "O=S(=O)(c1ccc2c(c1)nc1n2CCC1)N1CCOCC1", "property.label": "fluorescence slope", "numeric.value": -0.423}

Problem: Respond only with fluorescence slope recorded for O=C(CN(Cc1ccc(F)cc1)C(=O)c1ccco1)NCc1ccc(F)cc1
Solution: -0.359

Problem: # return recorded fluorescence slope for input O=C(O)C1CCCN1C(=O)Nc1ccc(F)cc1 (stereo unspecified)
Solution: -0.301

Problem: Query fluorescence slope for COC(=O)C1C(=O)C2=C(CC1C)NC(=O)CC2c1ccccc1 (stereo unspecified)
Solution: -0.388

---

assay: inhibitors of TNFa-induced NFkB p65 translocation, primary screen, imaging, HUVEC, MLSMR starter and 10KST1 sets (AID 438); details: HUVEC TNFa-induced p65 nuclear translocation; measured here: nuclei count (cytotoxicity indicator), at 2.08 µM;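 further: compound added about 3h40 before a 20 min TNFalpha stimulation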
Listing: cell count of selected compounds
Form field (numeric): enter value without unit.

The cases that follow already have their cell count on record.
{"compound": "COc1ccc(NC(=O)c2ccco2)cc1NC(=O)c1cccs1", "property.label": "cell count", "numeric.value": 400}
{"compound": "O=C(CSc1nnc(-c2ccco2)n1CC1CCCO1)N1CCCCC1 (configuration not stated)", "property.label": "cell count", "numeric.value": 375}

Problem: For the compound CCOC(=O)N1CCN(c2nc(-c3ccc(Cl)cc3)cs2)CC1 , report cell count.
Solution: 256

Problem: Provide only the value of recorded cell count for Nc1cccc2c1C(=O)N(c1ccccc1)C2=O
Solution: 560

Problem: Respond only with cell count recorded for O=C(CCCN1C(=O)c2ccccc2C1=O)NCc1cccnc1
Solution: 709

Problem: Please report cell count for the following compound: O=C(N1CCN(Cc2ccccc2)CC1)C12CC3CC(CC(C3)C1)C2
Solution: 530

Problem: Item O=C1C2CCCN2C(c2ccccc2)N1c1ccc(Cl)cc1 (configuration not stated) : provide cell count
Solution: 374

Problem: Query cell count for COc1ccc(C)cc1NC(=O)CNC(=O)Cn1ccc2ccccc2c1=O
Solution: 730

Problem: Return value of cell count for input COC(=O)c1[nH]c2ccc(C)cc2c1NC(=O)CN1CCC(C)CC1 , no commentary.
Solution: 340

---

target: Voltage-gated potassium channel subunit beta-2 (Rattus norvegicus) (UniProt P62483); assay: enhancers of rat Kvbeta2 NADPH turnover – biochemical, NADPH fluorescence, primary screen (AID 623); conditions: Recombinant KvBeta, NADPH fluorescence decrease slope, 10 min; at 10 µM; stronger effect = lower value;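 further: fluorescence intensity change per second fitted from 20 to 320 s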
Quick list: NADPH fluorescence slope per entry.
Output: the number by itself.

{"compound": "CCCCCc1nnc(NC(=O)Cc2cccs2)s1", "NADPH fluorescence slope": "-5.9e-05"}
{"compound": "Cc1cc(C)c2nc(C(F)(F)F)nc(NCCCN3CCCC3=O)c2c1", "NADPH fluorescence slope": "-2.3e-05"}
{"compound": "O=C(CN(Cc1ccc(F)cc1)C(=O)c1ccco1)NCc1ccc(F)cc1", "NADPH fluorescence slope": "-3.4e-05"}
{"compound": "O=C(Nc1ccccc1Cl)c1c(F)c(F)c(F)c(F)c1F", "NADPH fluorescence slope": "-3e-05"}
{"compound": "CCn1c(SCc2cc(=O)[nH]c3ccccc23)nc2c1c(=O)n(C)c(=O)n2C", "NADPH fluorescence slope": "-3.5e-05"}
{"compound": "Cc1cnc(NC(=O)CSc2nc3ccccc3c(=O)[nH]2)s1", "NADPH fluorescence slope": "5.1e-05"}
{"compound": "Cn1c(-c2ccccc2)cnc1SCc1nc2ccccc2c(=O)[nH]1", "NADPH fluorescence slope": "-6.5e-05"}
{"compound": "Cc1cc(Nc2ccccc2F)n2ncnc2n1", "NADPH fluorescence slope": "-2.7e-05"}
{"compound": "Cn1c(=O)[nH]c(=O)c2c1nc(N1CCCCC1)n2CCSc1ncccn1", "NADPH fluorescence slope": "-6.7e-05"}
{"compound": "CCOC(=O)c1c(C)oc2ccc(OCC(N)=O)cc12", "NADPH fluorescence slope": "-1.6e-05"}

Problem: Supply reported NADPH fluorescence slope belonging to this compound: COC(=O)Cc1csc(N)n1
Solution: 2.5e-05

Problem: Give NADPH fluorescence slope for COc1ccc2c(c1)CCc1cc(C(=O)N3CCN(c4ccc(N5CCOCC5)nn4)CC3)sc1-2
Solution: -1.1e-05

Problem: Name the recorded NADPH fluorescence slope of the compound listed here: COc1ccc(CCNC(=O)c2cnn3ccccc23)c(OC)c1OC
Solution: -4.4e-06

Problem: Dear colleague, please send me the reported NADPH fluorescence slope for O=C(OCC#CCSc1nnc(-c2ccncc2)o1)c1cccs1 when you can.
Solution: -2e-05

Problem: Dear colleague, please send me the reported NADPH fluorescence slope for CCCCN(Cc1cc2cc(OC)ccc2[nH]c1=O)C(=O)COc1ccccc1 when you can.
Solution: -5e-05

Problem: Output NADPH fluorescence slope of CCCC1(C(=O)OCC)NC(c2ccc(N(C)C)cc2)C2C(=O)N(c3ccccc3)C(=O)C21 (stereo not given)
Solution: -6.2e-05

Problem: // fetch NADPH fluorescence slope given entry CS(=O)(=O)N(CC(=O)Nc1ccc2c(c1)OCO2)Cc1ccc(Cl)cc1
Solution: -6.6e-05

Problem: Give the measured NADPH fluorescence slope for CC(=O)NCCn1ccc2ccccc21
Solution: 0.000103
